Target: Histamine H2 receptor (Homo sapiens)
Sequence (P25021 whole entry): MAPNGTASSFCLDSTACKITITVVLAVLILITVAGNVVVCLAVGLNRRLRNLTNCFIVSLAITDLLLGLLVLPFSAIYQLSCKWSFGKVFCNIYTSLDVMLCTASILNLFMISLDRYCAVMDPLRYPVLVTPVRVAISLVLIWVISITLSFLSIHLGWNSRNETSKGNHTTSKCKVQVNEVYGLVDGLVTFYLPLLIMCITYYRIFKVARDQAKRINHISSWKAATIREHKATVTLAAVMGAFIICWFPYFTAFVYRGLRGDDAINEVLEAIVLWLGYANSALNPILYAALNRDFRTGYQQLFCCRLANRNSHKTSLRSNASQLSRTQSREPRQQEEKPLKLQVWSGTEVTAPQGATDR
pIC50: −log10 of the molar value.
Result type: pIC50

[[record]]
smiles_entry = "CCCCCCCCCCCCCCC(=O)O[C@H](CC(=O)[O-])C[N+](C)(C)C"
comparator = "="
test_result = 5.21

[[record]]
smiles_entry = "CCCCCCCCCCCCCCC(=O)O"
comparator = "<"
test_result = 4.70


###

Target: Cholinergic receptor muscarinic 2 (Homo sapiens)
Sequence (P08172 whole entry): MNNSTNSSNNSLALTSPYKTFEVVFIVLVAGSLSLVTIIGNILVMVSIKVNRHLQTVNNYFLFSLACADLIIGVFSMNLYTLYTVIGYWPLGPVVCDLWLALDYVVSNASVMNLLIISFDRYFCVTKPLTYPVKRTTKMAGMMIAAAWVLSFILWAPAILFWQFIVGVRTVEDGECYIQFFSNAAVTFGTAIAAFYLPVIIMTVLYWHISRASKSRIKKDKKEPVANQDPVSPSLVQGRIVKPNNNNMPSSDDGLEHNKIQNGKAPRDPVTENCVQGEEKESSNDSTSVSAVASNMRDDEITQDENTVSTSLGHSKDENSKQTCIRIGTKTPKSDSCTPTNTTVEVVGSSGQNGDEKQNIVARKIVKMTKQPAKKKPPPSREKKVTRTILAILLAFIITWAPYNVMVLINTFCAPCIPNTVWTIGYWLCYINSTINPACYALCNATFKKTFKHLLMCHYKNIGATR
Assay: Receptor-based pharmacological activity, agonist
Conditions: positive control Acetylcholine chloride, read-out: RC50 (EC50)
Description: Methods for this study have been previously described (Venn-Watson, S., Lumpkin, R., Dennis, E. A. Efficacy of dietary odd-chain saturated fatty acid pentadecanoic acid parallels broad associated health benefits in humans: could it be essential? Sci Rep 10:8161 (2020)). Significant activities of pentadecanoylcarnitine were those tagged as having maximum pharmacological activities that were greater than or equal to 70% that of the internal control between the concentrations of 1 to 20 μM. […]
pEC50: −log10 of the molar value.
Reported values of pEC50 for individual entries
Result type: pEC50

[[record]]
smiles_entry = "CCCCCCCCCCCCCCC(=O)O[C@H](CC(=O)[O-])C[N+](C)(C)C"
test_system = "Cholinergic receptor muscarinic 2 (Homo sapiens)"
comparator = "="
test_result = 5.41

[[record]]
smiles_entry = "CCCCCCCCCCCCCCC(=O)O"
test_system = "Cholinergic receptor muscarinic 2 (Homo sapiens)"
comparator = "<"
test_result = 4.70


###

Some molecules, each annotated with its measured pEC50.
Molecular target: Cannabinoid receptor 2 (Homo sapiens, UniProt P34972)
Sequence (P34972 whole entry): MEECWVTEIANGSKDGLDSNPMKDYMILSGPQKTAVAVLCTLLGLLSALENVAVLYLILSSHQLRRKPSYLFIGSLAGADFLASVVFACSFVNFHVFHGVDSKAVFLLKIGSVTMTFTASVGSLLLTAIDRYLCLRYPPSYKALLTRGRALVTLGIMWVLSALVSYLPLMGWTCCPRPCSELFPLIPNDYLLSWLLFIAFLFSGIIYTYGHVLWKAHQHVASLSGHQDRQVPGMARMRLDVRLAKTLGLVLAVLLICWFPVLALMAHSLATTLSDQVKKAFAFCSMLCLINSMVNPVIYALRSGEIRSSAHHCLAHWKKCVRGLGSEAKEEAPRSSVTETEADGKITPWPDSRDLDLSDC
Test: Receptor-based pharmacological activity, agonist
Settings: Agonist; positive control CP 55940; read-out: RC50 (EC50)
pEC50: −log10 of the molar value.
Result type: pEC50

[[record]]
molecule = "CCCCCCCCCCCCCCC(=O)O [Pentadecanoic acid (C15:0), Pentadecanoic acid]"
result_type = "pEC50"
comparator = "<"
test_result = 4.70

[[record]]
molecule = "CCCCCCCCCCCCCCC(=O)O[C@H](CC(=O)[O-])C[N+](C)(C)C [Pentadecanoylcarnitine, pentadecanoylcarnitine]"
result_type = "pEC50"
comparator = "="
test_result = 5.49


###

Target: α-2A adrenergic receptor (Homo sapiens)
Sequence (P08913 whole entry, species assumed): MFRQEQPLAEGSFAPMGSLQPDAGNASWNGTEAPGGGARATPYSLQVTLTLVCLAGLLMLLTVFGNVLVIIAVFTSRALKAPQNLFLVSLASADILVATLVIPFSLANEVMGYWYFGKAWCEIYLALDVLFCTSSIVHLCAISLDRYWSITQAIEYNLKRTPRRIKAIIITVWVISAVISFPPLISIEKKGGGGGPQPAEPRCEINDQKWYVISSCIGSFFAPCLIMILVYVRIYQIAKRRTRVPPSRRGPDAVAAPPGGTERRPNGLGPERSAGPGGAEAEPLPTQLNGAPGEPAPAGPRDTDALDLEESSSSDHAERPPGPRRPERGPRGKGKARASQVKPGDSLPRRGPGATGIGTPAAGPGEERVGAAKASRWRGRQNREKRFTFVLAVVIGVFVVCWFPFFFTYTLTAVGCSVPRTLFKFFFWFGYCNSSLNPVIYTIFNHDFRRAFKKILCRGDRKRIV
Assay: Receptor-based pharmacological activity, agonist
Details: Agonist; positive control UK 14304; read-out: RC50 (EC50)
pEC50: −log10 of the molar value.
Result type: pEC50

[[record]]
smiles_entry = "CCCCCCCCCCCCCCC(=O)O[C@H](CC(=O)[O-])C[N+](C)(C)C"
result_type = "pEC50"
comparator = "="
test_result = 5.23

[[record]]
smiles_entry = "CCCCCCCCCCCCCCC(=O)O"
result_type = "pEC50"
comparator = "<"
test_result = 4.70


###

Biological target: Cholinergic receptor muscarinic 1 (Homo sapiens)
Sequence (P11229 1-460): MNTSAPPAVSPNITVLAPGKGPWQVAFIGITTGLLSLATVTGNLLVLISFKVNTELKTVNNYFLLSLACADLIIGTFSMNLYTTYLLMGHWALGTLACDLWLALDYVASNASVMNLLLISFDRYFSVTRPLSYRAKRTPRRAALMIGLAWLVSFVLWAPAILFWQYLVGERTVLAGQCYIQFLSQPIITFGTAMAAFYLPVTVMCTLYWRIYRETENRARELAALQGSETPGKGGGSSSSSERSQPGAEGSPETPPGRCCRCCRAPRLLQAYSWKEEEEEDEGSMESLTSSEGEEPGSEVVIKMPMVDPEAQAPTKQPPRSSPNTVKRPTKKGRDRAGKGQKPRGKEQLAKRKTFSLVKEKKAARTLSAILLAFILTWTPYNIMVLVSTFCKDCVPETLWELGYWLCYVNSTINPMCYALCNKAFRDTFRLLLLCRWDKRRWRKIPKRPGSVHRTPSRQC
Result type: IC50 (µM)

[[record]]
smiles_entry = "CCCCCCCCCCCCCCC(=O)O"
test_system = "Cholinergic receptor muscarinic 1 (Homo sapiens)"
unit_symbol = "µM"
comparator = ">"
test_result = 20

[[record]]
smiles_entry = "CCCCCCCCCCCCCCC(=O)O[C@H](CC(=O)[O-])C[N+](C)(C)C"
test_system = "Cholinergic receptor muscarinic 1 (Homo sapiens)"
unit_symbol = "µM"
comparator = "="
test_result = 10.5


###

Molecular target: Dopamine receptor D1 (Homo sapiens)
Sequence (P21728 whole entry, species assumed): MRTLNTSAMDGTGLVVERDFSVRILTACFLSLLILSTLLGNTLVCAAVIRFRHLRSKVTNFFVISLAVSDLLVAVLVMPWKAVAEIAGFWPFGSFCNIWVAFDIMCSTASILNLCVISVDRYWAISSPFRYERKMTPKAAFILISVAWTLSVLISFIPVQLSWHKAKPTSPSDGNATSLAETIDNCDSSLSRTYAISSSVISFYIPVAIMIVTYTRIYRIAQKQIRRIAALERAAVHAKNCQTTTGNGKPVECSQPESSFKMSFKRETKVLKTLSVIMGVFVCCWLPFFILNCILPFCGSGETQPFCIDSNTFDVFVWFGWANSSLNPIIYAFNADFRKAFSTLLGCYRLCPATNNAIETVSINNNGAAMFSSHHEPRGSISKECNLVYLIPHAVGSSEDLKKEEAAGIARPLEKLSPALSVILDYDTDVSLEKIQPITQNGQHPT
Experiment: Receptor-based pharmacological activity, antagonist
Conditions: Antagonist; positive control SCH 39166; read-out: RC50 (IC50)
pIC50: −log10 of the molar value.
Reported pIC50 by item:
Result type: pIC50

[[record]]
compound = "CCCCCCCCCCCCCCC(=O)O [Pentadecanoic acid (C15:0), Pentadecanoic acid]"
comparator = "<"
test_result = 4.70

[[record]]
compound = "CCCCCCCCCCCCCCC(=O)O[C@H](CC(=O)[O-])C[N+](C)(C)C [Pentadecanoylcarnitine, pentadecanoylcarnitine]"
comparator = "="
test_result = 5.21


###

Target: Serotonin Transporter (Homo sapiens, UniProt P31645)
Sequence (P31645 whole entry): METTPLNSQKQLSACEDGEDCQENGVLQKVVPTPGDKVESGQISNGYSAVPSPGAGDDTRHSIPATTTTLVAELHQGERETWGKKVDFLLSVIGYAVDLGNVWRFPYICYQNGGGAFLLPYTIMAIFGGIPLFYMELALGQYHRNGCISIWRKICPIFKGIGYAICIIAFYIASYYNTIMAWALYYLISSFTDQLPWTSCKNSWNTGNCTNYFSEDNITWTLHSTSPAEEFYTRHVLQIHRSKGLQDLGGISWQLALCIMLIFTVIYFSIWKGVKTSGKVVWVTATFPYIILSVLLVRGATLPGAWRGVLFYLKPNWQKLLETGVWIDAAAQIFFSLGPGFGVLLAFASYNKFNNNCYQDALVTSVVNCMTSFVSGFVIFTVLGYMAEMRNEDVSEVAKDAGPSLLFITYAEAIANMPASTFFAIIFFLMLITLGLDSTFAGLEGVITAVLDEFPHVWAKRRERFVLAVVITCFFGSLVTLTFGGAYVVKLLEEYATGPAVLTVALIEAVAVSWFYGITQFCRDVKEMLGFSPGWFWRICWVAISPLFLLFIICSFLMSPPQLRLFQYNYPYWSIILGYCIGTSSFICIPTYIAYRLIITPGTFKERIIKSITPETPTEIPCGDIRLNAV
pIC50: −log10 of the molar value.
Entries and their pIC50
Result type: pIC50

[[record]]
smiles_entry = "CCCCCCCCCCCCCCC(=O)O[C@H](CC(=O)[O-])C[N+](C)(C)C"
result_type = "pIC50"
comparator = "="
test_result = 5.13

[[record]]
smiles_entry = "CCCCCCCCCCCCCCC(=O)O"
result_type = "pIC50"
comparator = "<"
test_result = 4.70


###

Catalogue of pIC50 values
Molecular target: Histamine H1 receptor (Homo sapiens, UniProt P35367)
Sequence (P35367 whole entry): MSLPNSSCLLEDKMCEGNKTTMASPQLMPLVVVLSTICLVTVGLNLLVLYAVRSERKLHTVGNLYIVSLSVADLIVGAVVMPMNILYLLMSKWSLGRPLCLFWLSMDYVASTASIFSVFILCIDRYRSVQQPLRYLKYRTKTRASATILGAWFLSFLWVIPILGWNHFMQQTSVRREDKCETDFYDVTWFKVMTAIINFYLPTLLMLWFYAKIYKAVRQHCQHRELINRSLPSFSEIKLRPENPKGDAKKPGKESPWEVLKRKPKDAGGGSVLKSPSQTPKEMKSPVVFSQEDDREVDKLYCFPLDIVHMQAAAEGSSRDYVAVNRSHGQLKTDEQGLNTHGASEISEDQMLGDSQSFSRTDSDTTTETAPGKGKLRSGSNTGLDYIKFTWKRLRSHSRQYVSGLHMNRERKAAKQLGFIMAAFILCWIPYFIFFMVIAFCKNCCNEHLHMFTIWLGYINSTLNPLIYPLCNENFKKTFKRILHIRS
pIC50: −log10 of the molar value.
Result type: pIC50

[[record]]
compound = "CCCCCCCCCCCCCCC(=O)O [Pentadecanoic acid (C15:0), Pentadecanoic acid]"
result_type = "pIC50"
comparator = "<"
test_result = 4.70

[[record]]
compound = "CCCCCCCCCCCCCCC(=O)O[C@H](CC(=O)[O-])C[N+](C)(C)C [Pentadecanoylcarnitine, pentadecanoylcarnitine]"
result_type = "pIC50"
comparator = "="
test_result = 4.96


All values here come from patent US12370166B2.
